test system: L. acidophilus NCFM; assay: RNA-seq transcriptional analysis of L. acidophilus NCFM growing on plant glycosides; assay type: cell-based, Lactobacillus acidophilus; conditions: LBA1220 Pyridine mercuric reductase, COG C
Measured Quantity: Transcripts per million (rpm)

* OCc1ccccc1O[C@@H]1O[C@H](CO)[C@@H](O)[C@H](O)[C@H]1O | 654.9 rpm
* N#C[C@H](O[C@@H]1O[C@H](CO[C@@H]2O[C@H](CO)[C@@H](O)[C@H](O)[C@H]2O)[C@@H](O)[C@H](O)[C@H]1O)c1ccccc1 | 377.5 rpm
* O=c1ccc2cc(O[C@@H]3O[C@H](CO)[C@@H](O)[C@H](O)[C@H]3O)c(O)cc2o1 | 851.3 rpm
* OC[C@H]1O[C@@H](O[C@H]2[C@H](O)[C@@H](O)[C@@H](O)O[C@@H]2CO)[C@H](O)[C@@H](O)[C@H]1O | 394.7 rpm

* * *

system: L. acidophilus NCFM; assay: RNA-seq transcriptional analysis of L. acidophilus NCFM growing on plant glycosides; type: cell-based, Lactobacillus acidophilus; details: gene LBA1435 (Hypothetical protein)
Measured Quantity: Log2 differential normalized TPM ratio compared to glucose

• N#C[C@H](O[C@@H]1O[C@H](CO[C@@H]2O[C@H](CO)[C@@H](O)[C@H](O)[C@H]2O)[C@@H](O)[C@H](O)[C@H]1O)c1ccccc1 = 7.1
• OC[C@H]1O[C@@H](O[C@H]2[C@H](O)[C@@H](O)[C@@H](O)O[C@@H]2CO)[C@H](O)[C@@H](O)[C@H]1O = 3.7
• O=c1ccc2cc(O[C@@H]3O[C@H](CO)[C@@H](O)[C@H](O)[C@H]3O)c(O)cc2o1 = 5
• OCc1ccccc1O[C@@H]1O[C@H](CO)[C@@H](O)[C@H](O)[C@H]1O = 3.6

* * *

test system: L. acidophilus NCFM; assay: RNA-seq transcriptional analysis of L. acidophilus NCFM growing on plant glycosides; format: cell-based, Lactobacillus acidophilus; conditions: gene LBA0728 (Hypothetical protein LBA0728)
The compounds listed here are annotated with their Transcripts per million (rpm).
Measured Quantity: Transcripts per million (rpm)

• O=c1ccc2cc(O[C@@H]3O[C@H](CO)[C@@H](O)[C@H](O)[C@H]3O)c(O)cc2o1 = 70.6
• OCc1ccccc1O[C@@H]1O[C@H](CO)[C@@H](O)[C@H](O)[C@H]1O = 43.8
• OC[C@H]1O[C@@H](O[C@H]2[C@H](O)[C@@H](O)[C@@H](O)O[C@@H]2CO)[C@H](O)[C@@H](O)[C@H]1O = 8.5
• N#C[C@H](O[C@@H]1O[C@H](CO[C@@H]2O[C@H](CO)[C@@H](O)[C@H](O)[C@H]2O)[C@@H](O)[C@H](O)[C@H]1O)c1ccccc1 = 129.5

* * *

test system: L. acidophilus NCFM; experiment: RNA-seq transcriptional analysis of L. acidophilus NCFM growing on plant glycosides; type: cell-based, Lactobacillus acidophilus; conditions: gene LBA0492 (Hypothetical protein)
In this section, each of the compounds is paired with its reported Log2 differential normalized TPM ratio compared to glucose.
Measured Quantity: Log2 differential normalized TPM ratio compared to glucose

- OCc1ccccc1O[C@@H]1O[C@H](CO)[C@@H](O)[C@H](O)[C@H]1O: 2
- N#C[C@H](O[C@@H]1O[C@H](CO[C@@H]2O[C@H](CO)[C@@H](O)[C@H](O)[C@H]2O)[C@@H](O)[C@H](O)[C@H]1O)c1ccccc1: 5
- OC[C@H]1O[C@@H](O[C@H]2[C@H](O)[C@@H](O)[C@@H](O)O[C@@H]2CO)[C@H](O)[C@@H](O)[C@H]1O: 2.4
- O=c1ccc2cc(O[C@@H]3O[C@H](CO)[C@@H](O)[C@H](O)[C@H]3O)c(O)cc2o1: 3.7

* * *

Recorded Transcripts per million (rpm) by entry
tested on: L. acidophilus NCFM; assay: RNA-seq transcriptional analysis of L. acidophilus NCFM growing on plant glycosides; assay type: cell-based, Lactobacillus acidophilus; conditions: gene LBA1206 (Hypothetical protein)
Measured Quantity: Transcripts per million (rpm)

* O=c1ccc2cc(O[C@@H]3O[C@H](CO)[C@@H](O)[C@H](O)[C@H]3O)c(O)cc2o1 | 636.7
* N#C[C@H](O[C@@H]1O[C@H](CO[C@@H]2O[C@H](CO)[C@@H](O)[C@H](O)[C@H]2O)[C@@H](O)[C@H](O)[C@H]1O)c1ccccc1 | 984.2
* OCc1ccccc1O[C@@H]1O[C@H](CO)[C@@H](O)[C@H](O)[C@H]1O | 391.2
* OC[C@H]1O[C@@H](O[C@H]2[C@H](O)[C@@H](O)[C@@H](O)O[C@@H]2CO)[C@H](O)[C@@H](O)[C@H]1O | 302.8

* * *

Listed here are molecules together with their documented Transcripts per million (rpm).
test system: L. acidophilus NCFM; assay: RNA-seq transcriptional analysis of L. acidophilus NCFM growing on plant glycosides; type: cell-based, Lactobacillus acidophilus; settings: LBA0016 Fructokinase, COG KG
Measured Quantity: Transcripts per million (rpm)

* OC[C@H]1O[C@@H](O[C@H]2[C@H](O)[C@@H](O)[C@@H](O)O[C@@H]2CO)[C@H](O)[C@@H](O)[C@H]1O | 211.4
* O=c1ccc2cc(O[C@@H]3O[C@H](CO)[C@@H](O)[C@H](O)[C@H]3O)c(O)cc2o1 | 347.8
* N#C[C@H](O[C@@H]1O[C@H](CO[C@@H]2O[C@H](CO)[C@@H](O)[C@H](O)[C@H]2O)[C@@H](O)[C@H](O)[C@H]1O)c1ccccc1 | 387.4
* OCc1ccccc1O[C@@H]1O[C@H](CO)[C@@H](O)[C@H](O)[C@H]1O | 300.8

* * *

# reported Log2 differential normalized TPM ratio compared to glucose; entries follow
system: L. acidophilus NCFM; assay: RNA-seq transcriptional analysis of L. acidophilus NCFM growing on plant glycosides; format: cell-based, Lactobacillus acidophilus; conditions: gene LBA0282 (Hypothetical protein)
Measured Quantity: Log2 differential normalized TPM ratio compared to glucose

* OC[C@H]1O[C@@H](O[C@H]2[C@H](O)[C@@H](O)[C@@H](O)O[C@@H]2CO)[C@H](O)[C@@H](O)[C@H]1O | 0.6
* N#C[C@H](O[C@@H]1O[C@H](CO[C@@H]2O[C@H](CO)[C@@H](O)[C@H](O)[C@H]2O)[C@@H](O)[C@H](O)[C@H]1O)c1ccccc1 | 0.2
* O=c1ccc2cc(O[C@@H]3O[C@H](CO)[C@@H](O)[C@H](O)[C@H]3O)c(O)cc2o1 | 2.1
* OCc1ccccc1O[C@@H]1O[C@H](CO)[C@@H](O)[C@H](O)[C@H]1O | 0.7

* * *

test system: L. acidophilus NCFM; assay: RNA-seq transcriptional analysis of L. acidophilus NCFM growing on plant glycosides; format: cell-based, Lactobacillus acidophilus; conditions: gene LBA0631 (Hypothetical protein)
Measured Quantity: Log2 differential normalized TPM ratio compared to glucose

• OCc1ccccc1O[C@@H]1O[C@H](CO)[C@@H](O)[C@H](O)[C@H]1O = 2.9
• N#C[C@H](O[C@@H]1O[C@H](CO[C@@H]2O[C@H](CO)[C@@H](O)[C@H](O)[C@H]2O)[C@@H](O)[C@H](O)[C@H]1O)c1ccccc1 = 7.2
• OC[C@H]1O[C@@H](O[C@H]2[C@H](O)[C@@H](O)[C@@H](O)O[C@@H]2CO)[C@H](O)[C@@H](O)[C@H]1O = 3.1
• O=c1ccc2cc(O[C@@H]3O[C@H](CO)[C@@H](O)[C@H](O)[C@H]3O)c(O)cc2o1 = 2.9

* * *

The entries below come with measured Log2 differential normalized TPM ratio compared to glucose values attached.
test system: L. acidophilus NCFM; assay: RNA-seq transcriptional analysis of L. acidophilus NCFM growing on plant glycosides; type: cell-based, Lactobacillus acidophilus; settings: LBA1708 Transcriptional antiterminator, COG K
Measured Quantity: Log2 differential normalized TPM ratio compared to glucose

* O=c1ccc2cc(O[C@@H]3O[C@H](CO)[C@@H](O)[C@H](O)[C@H]3O)c(O)cc2o1 [Esculin] | 1.4
* OC[C@H]1O[C@@H](O[C@H]2[C@H](O)[C@@H](O)[C@@H](O)O[C@@H]2CO)[C@H](O)[C@@H](O)[C@H]1O [Lac] | 1.4
* N#C[C@H](O[C@@H]1O[C@H](CO[C@@H]2O[C@H](CO)[C@@H](O)[C@H](O)[C@H]2O)[C@@H](O)[C@H](O)[C@H]1O)c1ccccc1 [Amygdalin] | 2.8
* OCc1ccccc1O[C@@H]1O[C@H](CO)[C@@H](O)[C@H](O)[C@H]1O [Salicin] | 1.2

* * *

Quick list: Transcripts per million (rpm) per entry.
tested on: L. acidophilus NCFM; assay: RNA-seq transcriptional analysis of L. acidophilus NCFM growing on plant glycosides; assay type: cell-based, Lactobacillus acidophilus; conditions: LBA1463 Lactose permease, COG G
Measured Quantity: Transcripts per million (rpm)

• N#C[C@H](O[C@@H]1O[C@H](CO[C@@H]2O[C@H](CO)[C@@H](O)[C@H](O)[C@H]2O)[C@@H](O)[C@H](O)[C@H]1O)c1ccccc1 [Amygdalin] = 50.7
• OC[C@H]1O[C@@H](O[C@H]2[C@H](O)[C@@H](O)[C@@H](O)O[C@@H]2CO)[C@H](O)[C@@H](O)[C@H]1O [Lac] = 1427.3
• OCc1ccccc1O[C@@H]1O[C@H](CO)[C@@H](O)[C@H](O)[C@H]1O [Salicin] = 62.2
• O=c1ccc2cc(O[C@@H]3O[C@H](CO)[C@@H](O)[C@H](O)[C@H]3O)c(O)cc2o1 [Esculin] = 47.8

Numbers sourced from patent US20200222474A1.
